measured attribute: melting point

compound: CCN(CC)c1ccc(C=NNC(=O)CSc2nc3cc(Cl)ccc3o2)cc1 [Compound 3b]
measured value: 172 to 173 °C
--
compound: O=C(CSc1nc2cc(Cl)ccc2o1)NN=Cc1ccc(-n2cncn2)cc1 [Compound 3j]
measured value: 256 to 257 °C
--
compound: O=C(CSc1nc2cc(Cl)ccc2o1)NN=Cc1ccc(-n2ccnc2)cc1 [Compound 3i]
measured value: 229 to 231 °C
--
compound: O=C(CSc1nc2cc(Cl)ccc2o1)NN=Cc1ccc(N2CCOCC2)cc1 [Compound 3f]
measured value: 209 to 210 °C
--
compound: O=C(CSc1nc2cc(Cl)ccc2o1)NN=Cc1ccc([N+](=O)[O-])cc1 [Compound 3d]
measured value: 237 to 239 °C
--
compound: O=C(CSc1nc2cc(Cl)ccc2o1)NN=Cc1ccc(N2CCCC2)cc1 [Compound 3h]
measured value: 206 to 207 °C
--
compound: CN1CCN(c2ccc(C=NNC(=O)CSc3nc4cc(Cl)ccc4o3)cc2)CC1 [Compound 3g]
measured value: 178 to 179 °C
--
compound: CN(C)c1ccc(C=NNC(=O)CSc2nc3cc(Cl)ccc3o2)cc1 [Compound 3a]
measured value: 197 to 199 °C
--
compound: NNC(=O)CSc1nc2cc(Cl)ccc2o1 [Compound 2]
measured value: 159 to 161 °C
--
compound: O=C(CSc1nc2cc(Cl)ccc2o1)NN=Cc1ccc(N(CCCl)CCCl)cc1 [Compound 3c]
measured value: 155 to 156 °C

----------
Reported early apoptosis (%) by item:
# System: A549 cells
# assay text: Annexin V FITC/PI flow cytometric analysis of apoptosis
# conditions used: 24 h, each agent at its IC50 (3a 91.35, 3e 176.23, 3g 46.60, 3i 83.59, cisplatin 23.89 μM)
measured attribute: early apoptosis (%)

compound: N.N.[Cl][Pt][Cl] [Cisplatin, reference compound]
measured value: 3.61
--
compound: CN(C)c1ccc(C=NNC(=O)CSc2nc3cc(Cl)ccc3o2)cc1
measured value: 11.22
--
compound: O=C(CSc1nc2cc(Cl)ccc2o1)NN=Cc1ccc(-n2ccnc2)cc1
measured value: 2.70
--
compound: O=C(CSc1nc2cc(Cl)ccc2o1)NN=Cc1ccc(N2CCCCC2)cc1
measured value: 3.26
--
compound: CN1CCN(c2ccc(C=NNC(=O)CSc3nc4cc(Cl)ccc4o3)cc2)CC1
measured value: 7.13

----------
Catalogue of IC50 readings, one per entry.
# System: Akt
# assay text: Akt Colorimetric In-Cell ELISA, Akt inhibition in A549 cells
# Assay type: cell-based, human
# conditions used: A549 cell line, 24 h, mean ± SD, triplicate; read-out: Akt inhibitory effect IC50

compound: O=C(CSc1nc2cc(Cl)ccc2o1)NN=Cc1ccc(-n2ccnc2)cc1 [Compound 3i]
IC50: 69.5 µM
//
compound: CCn1c(-c2nonc2N)nc2c(C#CC(C)(C)O)ncc(OC[C@H]3CCCNC3)c21 [GSK690693, reference compound]
IC50: 5.93 µM
//
compound: O=C(CSc1nc2cc(Cl)ccc2o1)NN=Cc1ccc(N2CCCCC2)cc1 [Compound 3e]
IC50: 106 µM
//
compound: N.N.[Cl][Pt][Cl] [Cisplatin, reference compound]
IC50: 8.09 µM

Where do these numbers come from? They come from paper PMC10249096.
